The reported measurements were obtained from patent US10106556B2.

targetOrSystem: His-hMAGL (recombinant polyhistidine tagged human MAGL protein) (Homo sapiens)
Construct: made in house; host or cells: E. coli BL21(DE3)
Sequence (Q99685 1-303): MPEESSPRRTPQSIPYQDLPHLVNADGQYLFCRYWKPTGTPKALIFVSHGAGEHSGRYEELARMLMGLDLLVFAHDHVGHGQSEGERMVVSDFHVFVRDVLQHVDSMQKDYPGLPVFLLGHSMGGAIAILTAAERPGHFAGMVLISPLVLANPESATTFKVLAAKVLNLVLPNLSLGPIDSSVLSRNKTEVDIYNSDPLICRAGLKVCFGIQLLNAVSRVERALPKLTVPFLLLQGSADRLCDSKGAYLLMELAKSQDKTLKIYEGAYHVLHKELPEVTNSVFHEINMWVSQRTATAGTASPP
assayInfo: Measurement of MAGL inhibitory activity (arachidonic acid production from 2-arachidonylglycerol, RapidFire-mass spectrometry)
Assay type: biochemical
assayConditions: MAGL inhibitory rate at 10 μM test compound; 60 min preincubation with His-hMAGL, 2-arachidonylglycerol substrate, 10 min reaction at room temperature
experimentalReadout: inhibition at 10 µM (%)

chemicalString: O=C1COc2cc(F)c(C(=O)N3CC(COCc4ccc5scnc5c4)C3)cc2N1
targetOrSystem: His-hMAGL (recombinant polyhistidine tagged human MAGL protein) (Homo sapiens)
inhibition at 10 µM, %: 100
--
chemicalString: O=C1COc2ccc(C(=O)N3CCC(COc4ccc5ccccc5c4)CC3)cc2N1
targetOrSystem: His-hMAGL (recombinant polyhistidine tagged human MAGL protein) (Homo sapiens)
inhibition at 10 µM, %: 92
--
chemicalString: Cc1ccncc1-c1ccc(OCC2CN(C(=O)c3cc4c(cc3F)OCC(=O)N4)C2)c(F)c1
targetOrSystem: His-hMAGL (recombinant polyhistidine tagged human MAGL protein) (Homo sapiens)
inhibition at 10 µM, %: 99
--
chemicalString: Cn1ccc(-c2ccc(OCC3CN(C(=O)c4cc5c(cc4F)OCC(=O)N5)C3)c(F)c2)n1
targetOrSystem: His-hMAGL (recombinant polyhistidine tagged human MAGL protein) (Homo sapiens)
inhibition at 10 µM, %: 99
